system: PC-3 PIP/flu tumor-bearing mice; experiment: Biodistribution studies in PC-3 PIP/flu tumor-bearing mice; details: 4 h p.i.; PC-3 PIP tumor
I'd appreciate it if you could supply Tumor-to-liver values for the items below.
One number for each entry.

Example entries begin here.
{"Molecule": "Cc1ccc(CCCC(=O)NCCCCC(NC(=O)CN2CCN(CC(=O)O)CCN(CC(=O)O)CCN(CC(=O)O)CC2)C(=O)NCC2CCC(C(=O)NC(Cc3ccc4ccccc4c3)C(=O)NCCCCC(NC(=O)NC(CCC(=O)O)C(=O)O)C(=O)O)CC2)cc1 (stereo not drawn) [^177Lu-PSMA-ALB-06, metal not drawn]", "Tumor-to-liver": 24.29}
{"Molecule": "Cc1ccc(CCCC(=O)NC(CC(=O)NC(CC(=O)NC(CC(=O)NC(CCCCNC(=O)CN2CCN(CC(=O)O)CCN(CC(=O)O)CCN(CC(=O)O)CC2)C(=O)NCC2CCC(C(=O)NC(Cc3ccc4ccccc4c3)C(=O)NCCCCC(NC(=O)NC(CCC(=O)O)C(=O)O)C(=O)O)CC2)C(=O)O)C(=O)O)C(=O)O)cc1 (stereo not drawn) [^177Lu-PSMA-ALB-08, metal not drawn]", "Tumor-to-liver": 177}
{"Molecule": "O=C(O)CCC(NC(=O)NC(CCCCNC(=O)C(Cc1ccc2ccccc2c1)NC(=O)C1CCC(CNC(=O)C(CCCCNC(=O)CCCc2ccc(I)cc2)NC(=O)CN2CCN(CC(=O)O)CCN(CC(=O)O)CCN(CC(=O)O)CC2)CC1)C(=O)O)C(=O)O (stereo not drawn) [^177Lu-PSMA-ALB-03, metal not drawn]", "Tumor-to-liver": 4.60}
{"Molecule": "O=C(O)CCC(NC(=O)NC(CCCCNC(=O)C(Cc1ccc2ccccc2c1)NC(=O)C1CCC(n2cc(CC(NC(=O)CN3CCN(CC(=O)O)CCN(CC(=O)O)CCN(CC(=O)O)CC3)C(=O)NC(CCCCNC(=O)CCCc3ccc(I)cc3)C(=O)O)nn2)CC1)C(=O)O)C(=O)O (stereo not drawn) [^177Lu-PSMA-ALB-01, metal not drawn]", "Tumor-to-liver": 3.45}
{"Molecule": "O=C(O)CCC(NC(=O)NC(CCCCNC(=O)C(Cc1ccc2ccccc2c1)NC(=O)C1CCC(CNC(=O)C(CCCCNC(=O)CN2CCN(CC(=O)O)CCN(CC(=O)O)CCN(CC(=O)O)CC2)NC(=O)CC(NC(=O)CC(NC(=O)CC(NC(=O)CCCc2ccc(I)cc2)C(=O)O)C(=O)O)C(=O)O)CC1)C(=O)O)C(=O)O (stereo not drawn) [^177Lu-PSMA-ALB-07, metal not drawn]", "Tumor-to-liver": 33.6}

# lookup: Tumor-to-liver of O=C(O)CCC(NC(=O)NC(CCCCNC(=O)C(Cc1ccc2ccccc2c1)NC(=O)C1CCC(CNC(=O)C(CCCCNC(=O)CN2CCN(CC(=O)O)CCN(CC(=O)O)CCN(CC(=O)O)CC2)NC(=O)CC(NC(=O)CC(NC(=O)CCCc2ccc(I)cc2)C(=O)O)C(=O)O)CC1)C(=O)O)C(=O)O (stereo not drawn) [^177Lu-PSMA-ALB-05, metal not drawn]
25.6
